Origin of measurements: patent US9353107B2

Form field: inhibition at 1 µM (one value per entry).
# System Name: recombinant human ALK enzyme (ALK WT) (Homo sapiens, UniProt Q9UM73)
# Construct: purchased Carna Biosciences 08-518
# Sequence (Q9UM73 1058-1620 limits assumed): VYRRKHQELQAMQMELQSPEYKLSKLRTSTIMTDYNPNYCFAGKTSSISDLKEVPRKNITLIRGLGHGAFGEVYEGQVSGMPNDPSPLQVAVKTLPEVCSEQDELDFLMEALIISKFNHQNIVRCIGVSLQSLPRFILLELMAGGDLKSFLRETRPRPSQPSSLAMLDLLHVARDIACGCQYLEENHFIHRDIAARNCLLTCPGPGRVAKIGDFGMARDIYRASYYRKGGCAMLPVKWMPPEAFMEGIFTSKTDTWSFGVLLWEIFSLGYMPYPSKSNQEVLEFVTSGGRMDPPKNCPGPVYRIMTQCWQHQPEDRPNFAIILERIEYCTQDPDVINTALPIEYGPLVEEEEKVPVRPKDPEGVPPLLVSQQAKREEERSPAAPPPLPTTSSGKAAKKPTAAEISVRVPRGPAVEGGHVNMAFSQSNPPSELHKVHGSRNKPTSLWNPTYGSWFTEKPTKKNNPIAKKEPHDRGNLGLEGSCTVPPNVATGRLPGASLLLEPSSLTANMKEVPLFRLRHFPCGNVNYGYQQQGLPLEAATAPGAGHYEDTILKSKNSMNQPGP
# Assay Comment: ALK WT cell free enzymatic assay (TR-FRET)
# Type: biochemical
# Applied Conditions: compound at 1 μM; 30 min pre-incubation; 1 μM ATP
Counter-ions that a name gives are not always drawn.
Express it in %; write the number only.

Below, 5 molecules whose answers are already recorded.
{"Molecule": "CS(=O)(=O)Nc1cc(-c2cnc3[nH]cc(-c4cnn(Cc5cccc(F)c5)c4)c3c2)ccc1N1CCNCC1 [Example 106, hydrochloride]", "System Name": "recombinant human ALK enzyme (ALK WT) (Homo sapiens, UniProt Q9UM73)", "inhibition at 1 µM (%)": 100}
{"Molecule": "C[C@H](O)CN1CCN(c2ccc(-c3cnc4[nH]cc(-c5cnn(Cc6cccc(Cl)c6)c5)c4c3)cn2)CC1 [Example 153]", "System Name": "recombinant human ALK enzyme (ALK WT) (Homo sapiens, UniProt Q9UM73)", "inhibition at 1 µM (%)": 100}
{"Molecule": "C[C@H](O)CN1CCN(c2ccc(-c3cnc4[nH]cc(-c5cnn(Cc6ccccc6)c5)c4c3)cn2)CC1 [Example 148]", "System Name": "recombinant human ALK enzyme (ALK WT) (Homo sapiens, UniProt Q9UM73)", "inhibition at 1 µM (%)": 100}
{"Molecule": "CS(=O)(=O)Nc1cccc(-c2cnc3[nH]cc(-c4cnn(Cc5cccc(F)c5)c4)c3c2)c1 [Example 9]", "System Name": "recombinant human ALK enzyme (ALK WT) (Homo sapiens, UniProt Q9UM73)", "inhibition at 1 µM (%)": 98}
{"Molecule": "CS(=O)(=O)N1CCN(c2ccc(-c3cnc4[nH]cc(-c5cnn(Cc6cccc(F)c6)c5)c4c3)cc2)CC1 [Example 125]", "System Name": "recombinant human ALK enzyme (ALK WT) (Homo sapiens, UniProt Q9UM73)", "inhibition at 1 µM (%)": 97}

Quick one: inhibition at 1 µM of COc1ccc(-c2cnc3[nH]c(C4CC4)c(-c4c(C)nn(Cc5cccc(F)c5)c4C)c3c2)cc1NS(C)(=O)=O [Example 30] ?
21

Please answer likewise for c1cncc(Cn2cc(-c3c[nH]c4ncc(-c5ccc(C6CCNCC6)cc5)cc34)cn2)c1 [Example 89]
98

Now try Cc1cccc(Cn2nc(C)c(-c3c[nH]c4ncc(-c5ccc(N6CCNCC6)cc5)cc34)c2C)c1 [Example 51, hydrochloride] .
100

// same read-out, input: CS(=O)(=O)Nc1cc(-c2cnc3[nH]cc(-c4cnn(Cc5cc(F)cc(F)c5)c4)c3c2)ccc1F [Example 79]
102

And then Fc1cc(-c2cnc3[nH]cc(-c4ccn(CCc5ccccc5)n4)c3c2)ccc1C1CCNCC1 [Example 168] , what is it?
71

Let us now turn to N#CCCN1CCN(c2cccc(-c3cnc4[nH]cc(-c5cnn(Cc6cccc(F)c6)c5)c4c3)c2)CC1 [Example 34]
99

What about this molecule? Cc1c(-c2c[nH]c3ncc(-c4ccc(N5CCN(C[C@H](C)O)CC5)cc4)cc23)cnn1Cc1cccc(F)c1 [Example 129]
99

// repeat for COc1cc(-c2cnc3[nH]cc(-c4cnn(Cc5cccc(F)c5)c4)c3c2)ccc1NS(C)(=O)=O [Example 68] and report
93

What do we get for Nc1cc(-c2cnc3[nH]cc(-c4cnn(Cc5cccc(F)c5)c4)c3c2)ccc1N1CCNCC1 [Example 105] ?
100

Next record, please: CS(=O)(=O)Nc1cc(-c2cnc3[nH]cc(-c4cnn(Cc5cccc(F)c5)c4)c3c2)ccc1F [Example 78]
101

Same read-out for Fc1cccc(Cn2cc(-c3c[nH]c4ncc(-c5ccc(C6CCNCC6)c(F)c5)cc34)cn2)c1 [Example 84] ?
100
